Kindly supply the reported Cytotoxicity on Vero cells ED50 values for the records listed here.
test system: Vero cells; assay: Cytotoxicity for Vero cells; assay type: cell-based; details: Alamar Blue assay

Query: Cytotoxicity on Vero cells ED50; subject: COc1ccc(Oc2ccc(OCCSC#N)cc2)cc1
> 100 µM

Dear colleague, I am looking for the recorded Cytotoxicity on Vero cells ED50 of the following compound: N#CSCCOc1ccc(Oc2cccnc2)cc1
> 50 µM

Alright, here's another compound for you.
Value lookup for Cytotoxicity on Vero cells ED50; key = O=[N+]([O-])c1cccc(Oc2ccc(OCCOC3CCCCO3)cc2)c1 (stereo not drawn)
> 50 µM
